This listing pairs compounds with measured half-life.
Test: Degradation in rat intestinal preparation
Format: in vitro ADME
Details: pH 7.4, 37° C., read-out: half-time, Rat Intestinal Preparation (converted)
Square brackets hold non-standard residues; d marks the D form. Peptide text beside a SMILES is read from it. Ala(indol-4-yl) = N[C@@H](Cc1cccc2[nH]ccc12)C(=O)O; NMeR = CN[C@@H](CCCNC(=N)N)C(=O)O; Tle = CC(C)(C)[C@H](N)C(=O)O

>>> recorded_value("CN[C@@H](CCCNC(=N)N)C(=O)N[C@@H](CCCCN)C(=O)N1CCC[C@H]1C(=O)N[C@@H](Cc1c[nH]c2ccccc12)C(=O)N[C@H](C(=O)N[C@@H](CC(C)C)C(=O)O)C(C)(C)C [Eisai, reference compound] (H-[NMeR]KPW[Tle]L-OH; N-terminus and C-terminus assumed)")
"22 h"

# context switch: different compound, same half-life
Query: Request the reported half-life associated with CC(C)C[C@H](NC(=O)[C@@H](NC(=O)[C@H](Cc1cccc2[nH]ccc12)NC(=O)[C@@H]1CCCN1C(=O)[C@H](N)CCCCN)C(C)(C)C)C(=O)O [NT72] (H-[dK]P[Ala(indol-4-yl)][Tle]L-OH; N-terminus and C-terminus assumed)
Result: 54 h
